Catalogue of compounds with associated CC50
# assay.overview: in vitro
# test.context: dog

given.smiles: O=C1Nc2ccccc2/C1=N/NC(=S)N/N=C1\C(=O)Nc2ccccc21
CC50: > 100 µM

given.smiles: O=C(N/N=C1\C(=O)Nc2ccc([N+](=O)[O-])cc21)N/N=C1\C(=O)Nc2ccc([N+](=O)[O-])cc21
CC50: > 100 µM

Consider now this further compound.
query: Entry under review: O=C1/C(=N\NC(=S)NN=Cc2ccccc2)c2ccccc2N1Cc1ccccc1 . Reported CC50?
result: > 100 µM

====

# System: Influenza B
# assay.overview: Anti-influenza virus activity, influenza B in MDCK cells
# Format: cell-based, influenza B virus B/Hong Kong/5/72
# test.context: Influenza B virus, MDCK, read-out: Antiviral EC50 Influenza B Visual CPE score
outcome.measure: EC50 (µM)
// units = µM; emit number, no label

Before answering, review these 2 worked examples.
compound: O=C(N/N=C1\C(=O)Nc2ccc([N+](=O)[O-])cc21)N/N=C1\C(=O)Nc2ccc([N+](=O)[O-])cc21 [6d]
outcome.measure: EC50
experimental.value: 47

compound: NC(=O)c1ncn([C@@H]2O[C@H](CO)[C@@H](O)[C@H]2O)n1 [Ribavirin, reference compound]
outcome.measure: EC50
experimental.value: 2.4

Pending compound:
query: Can you look up the measured EC50 of O=C1Nc2ccccc2/C1=N/NC(=S)N/N=C1\C(=O)Nc2ccccc21 [6e] for me?
result: 39

====

# Tested on: MDCK cells
# test.context: microscopically detectable alteration of normal cell morphology
outcome.measure: Cytotoxicity Minimum cytotoxic concentration

compound: NC(=O)c1ncn([C@@H]2O[C@H](CO)[C@@H](O)[C@H]2O)n1 [Ribavirin, reference compound]
experimental.value: >100
--
compound: NC12CC3CC(CC(C3)C1)C2 [Amantadine, reference compound]
experimental.value: >200

query: For the compound shown here, O=C(N/N=C1\C(=O)Nc2ccccc21)N/N=C1\C(=O)Nc2ccccc21 , give the reported Cytotoxicity Minimum cytotoxic concentration.
result: >100

====

# Tested on: Influenza B
# assay.overview: Anti-influenza virus activity, influenza B in MDCK cells
# Assay type: cell-based, influenza B virus B/Hong Kong/5/72
# test.context: Influenza B virus, MDCK, read-out: Antiviral EC50 Influenza B Visual CPE score
pEC50: −log10 of the molar value.
outcome.measure: pEC50

Take a look at these entries with their results.
molecule: O=C(N/N=C1\C(=O)Nc2ccc(Cl)cc21)N/N=C1\C(=O)Nc2ccc(Cl)cc21
pEC50: < 4.00
--
molecule: CC(N)C12CC3CC(CC(C3)C1)C2 (stereo not drawn) [Rimantadine, reference compound]
pEC50: < 3.70

From here, focus on the item given below.
query: For Influenza B, provide pEC50 of Cc1ccc2c(c1)/C(=N/NC(=O)N/N=C1\C(=O)Nc3ccc(C)cc31)C(=O)N2 please.
result: < 4.70
